molecular target: human Nav1.8 (Homo sapiens (Human)); test: Nav1.8 Qube® Assay (automated 384-well patch-clamp); conditions: human Nav1.8 channels stably expressed in HEK 293 cells
quantity kind: IC50 (nM)

Some solved entries appear below for comparison.
compound	IC50 [nM]
O=C1NC[C@@H](C(=O)NC(c2ccc(Cl)c(C(F)(F)F)n2)C2CCC(F)(F)CC2)O1 (single isomer, unassigned) [Example 63A]	12
O=C1NC[C@@H](C(=O)NC(c2ccc(Cl)cc2)C2CCN(CC(F)(F)F)CC2)O1 (single isomer, unassigned) [Example 42A]	936
O=C1NC[C@@H](C(=O)NC(c2ccc(Cl)cc2)c2ccc(Cl)c(C(F)(F)F)n2)O1 (single isomer, unassigned) [Example 2B]	30
O=C1NC[C@@H](C(=O)NC(c2ccc(Cl)cc2)c2cccc(C3CC3)c2)O1 (single isomer, unassigned) [Example 33B]	9.4

1. O=C1NC[C@@H](C(=O)NC(c2ccc(OCC(F)(F)F)nc2)c2ccc(F)c(Cl)c2F)O1 (single isomer, unassigned) [Example 50A]
2. O=C1NC[C@@H](C(=O)NC(c2ccc(Cl)cc2)C23CC(C(F)(F)F)(C2)C3)O1 (single isomer, unassigned) [Example 4B]
Just tell me: smaller IC50 value, 1 or 2 ? I would appreciate it if you answered with the label of your choice.
1
(1: 1.6 nM, 2: 312 nM)

---

biological target: human Nav1.8 (Homo sapiens (Human), UniProt Q9Y5Y9); assay: Nav1.8 Qube® Assay (automated 384-well patch-clamp); details: human Nav1.8 channels stably expressed in HEK 293 cells
Sequence (Q9Y5Y9 whole entry): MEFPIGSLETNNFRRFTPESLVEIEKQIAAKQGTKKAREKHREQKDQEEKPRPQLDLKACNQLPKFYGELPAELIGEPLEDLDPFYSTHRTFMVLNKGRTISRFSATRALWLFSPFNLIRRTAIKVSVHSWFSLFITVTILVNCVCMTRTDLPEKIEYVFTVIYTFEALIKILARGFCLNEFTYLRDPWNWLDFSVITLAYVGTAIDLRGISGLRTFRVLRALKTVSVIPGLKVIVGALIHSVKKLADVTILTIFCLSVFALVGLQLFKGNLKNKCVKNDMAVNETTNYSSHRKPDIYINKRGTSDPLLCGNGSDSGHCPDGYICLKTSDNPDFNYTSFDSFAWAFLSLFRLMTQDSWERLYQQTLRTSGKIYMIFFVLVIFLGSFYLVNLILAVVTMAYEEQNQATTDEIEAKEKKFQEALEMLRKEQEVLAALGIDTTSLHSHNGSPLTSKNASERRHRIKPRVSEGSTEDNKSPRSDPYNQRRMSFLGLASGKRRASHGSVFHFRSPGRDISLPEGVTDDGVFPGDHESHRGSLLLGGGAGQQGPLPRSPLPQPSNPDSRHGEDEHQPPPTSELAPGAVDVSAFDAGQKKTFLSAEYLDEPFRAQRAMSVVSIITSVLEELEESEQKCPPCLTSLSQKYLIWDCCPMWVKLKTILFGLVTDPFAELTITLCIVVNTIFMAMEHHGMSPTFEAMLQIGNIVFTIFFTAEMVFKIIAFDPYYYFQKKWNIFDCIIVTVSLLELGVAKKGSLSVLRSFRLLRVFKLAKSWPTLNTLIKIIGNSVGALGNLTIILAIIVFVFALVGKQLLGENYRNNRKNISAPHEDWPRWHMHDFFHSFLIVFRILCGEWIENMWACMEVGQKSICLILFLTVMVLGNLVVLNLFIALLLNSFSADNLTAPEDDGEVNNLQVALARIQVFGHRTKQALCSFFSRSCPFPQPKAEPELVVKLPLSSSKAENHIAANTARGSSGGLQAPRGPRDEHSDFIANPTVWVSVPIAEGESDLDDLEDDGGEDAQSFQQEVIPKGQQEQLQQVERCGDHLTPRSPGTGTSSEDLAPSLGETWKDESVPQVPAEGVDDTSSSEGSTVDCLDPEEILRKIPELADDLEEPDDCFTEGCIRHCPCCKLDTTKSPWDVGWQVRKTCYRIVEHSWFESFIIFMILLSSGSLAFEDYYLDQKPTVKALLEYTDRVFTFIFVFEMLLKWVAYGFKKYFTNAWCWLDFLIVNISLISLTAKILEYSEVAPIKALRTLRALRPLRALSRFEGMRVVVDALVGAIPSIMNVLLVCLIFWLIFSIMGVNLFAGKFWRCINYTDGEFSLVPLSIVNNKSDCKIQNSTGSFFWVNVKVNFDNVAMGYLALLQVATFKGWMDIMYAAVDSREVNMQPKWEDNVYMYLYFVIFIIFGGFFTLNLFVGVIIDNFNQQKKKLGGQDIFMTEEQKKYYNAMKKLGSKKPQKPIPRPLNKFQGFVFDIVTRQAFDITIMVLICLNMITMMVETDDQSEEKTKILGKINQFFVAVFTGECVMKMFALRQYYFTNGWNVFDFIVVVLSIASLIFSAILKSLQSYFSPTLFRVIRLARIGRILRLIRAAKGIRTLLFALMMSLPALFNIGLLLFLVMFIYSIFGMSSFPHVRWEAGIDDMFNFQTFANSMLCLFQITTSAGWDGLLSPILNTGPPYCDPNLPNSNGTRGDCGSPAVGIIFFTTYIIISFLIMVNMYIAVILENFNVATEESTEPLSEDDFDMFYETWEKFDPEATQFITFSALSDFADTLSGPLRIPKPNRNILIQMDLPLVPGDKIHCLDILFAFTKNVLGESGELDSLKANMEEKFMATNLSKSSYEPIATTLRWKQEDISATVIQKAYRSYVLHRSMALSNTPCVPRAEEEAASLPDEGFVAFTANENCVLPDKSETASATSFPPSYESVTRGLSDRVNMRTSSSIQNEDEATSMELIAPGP
quantity kind: IC50 (µM)

Some solved entries appear below for comparison.
compound	assay target	IC50 / µM
O=C1NC[C@@H](C(=O)NC(c2ccc(Cl)cc2)c2ccc(Cl)c(C(F)(F)F)n2)O1 (single isomer, unassigned) [Example 2A]	human Nav1.8 (Homo sapiens (Human), UniProt Q9Y5Y9)	0.0006
O=C1NC[C@@H](C(=O)NC(c2ccc(OC(F)(F)F)c(Cl)c2)c2cnn(C(F)(F)F)c2)O1 (single isomer, unassigned) [Example 53A]	human Nav1.8 (Homo sapiens (Human), UniProt Q9Y5Y9)	0.022

P. O=C1NC[C@@H](C(=O)NC(c2ccc(Cl)cc2)c2cccc(F)c2F)O1 (single isomer, unassigned) [Example 29A]
Q. O=C1NC[C@@H](C(=O)NC(c2ccc(Cl)cc2)c2cccs2)O1 (stereo partly shown)
Could you please tell me which of these two has the higher IC50: P or Q ? I would appreciate it if you answered with the label of your choice.
Q

---

target: human Nav1.8 (Homo sapiens (Human), UniProt Q9Y5Y9); assay: Nav1.8 Qube® Assay (automated 384-well patch-clamp); settings: human Nav1.8 channels stably expressed in HEK 293 cells
pIC50: −log10 of the molar value.
quantity kind: pIC50

Some solved entries appear below for comparison.
compound	assay target	quantity kind	quantitative result
O=C1NC[C@@H](C(=O)NC(c2ccc(Cl)cc2)c2n[nH]c3ccccc23)O1 (single isomer, unassigned) [Example 15A]	human Nav1.8 (Homo sapiens (Human), UniProt Q9Y5Y9)	pIC50	7.24
O=C1NC[C@@H](C(=O)NC(c2ccc(Cl)cc2)c2ccc(Cl)cc2OC(F)(F)F)O1 (single isomer, unassigned) [Example 47B]	human Nav1.8 (Homo sapiens (Human), UniProt Q9Y5Y9)	pIC50	7.77
O=C1NC[C@@H](C(=O)NC(c2ccc(OC(F)(F)F)c(Cl)c2)c2ccnc(C(F)(F)F)n2)O1 (single isomer, unassigned) [Example 52B]	human Nav1.8 (Homo sapiens (Human), UniProt Q9Y5Y9)	pIC50	7.89
O=C1NC[C@@H](C(=O)NC(c2ccc(F)c(Cl)c2F)[C@@H]2CC[C@@H](C(F)(F)F)CO2)O1 (single isomer, unassigned) [Example 9A]	human Nav1.8 (Homo sapiens (Human), UniProt Q9Y5Y9)	pIC50	8.14
O=C1NC[C@@H](C(=O)NC(c2ccc(C(F)(F)F)nc2)c2csc(C(F)(F)F)n2)O1 (stereo partly shown)	human Nav1.8 (Homo sapiens (Human), UniProt Q9Y5Y9)	pIC50	6.89
COc1cc(Cl)ccc1C(NC(=O)[C@@H]1CNC(=O)O1)c1ccc(F)cc1 (single isomer, unassigned) [Example 55B]	human Nav1.8 (Homo sapiens (Human), UniProt Q9Y5Y9)	pIC50	8.33
O=C1NC[C@@H](C(=O)NC(c2ccccc2)C2C3CC4CC(C3)CC2C4)O1 (stereo partly shown)	human Nav1.8 (Homo sapiens (Human), UniProt Q9Y5Y9)	pIC50	6.53
O=C1NC[C@@H](C(=O)NC(c2ccc(OC(F)(F)F)c(Cl)c2)c2ccnc(C(F)(F)F)n2)O1 (single isomer, unassigned) [Example 52A]	human Nav1.8 (Homo sapiens (Human), UniProt Q9Y5Y9)	pIC50	8.10

A. Cn1nc(C(NC(=O)[C@@H]2CNC(=O)O2)c2ccc(F)c(Cl)c2)cc1C(F)(F)F (single isomer, unassigned) [Example 62A]
B. O=C1NC[C@@H](C(=O)NC(c2ccc(Cl)cc2)c2cccc3ccccc23)O1 (stereo partly shown)
Could you please tell me which of these two has the higher pIC50: A or B ? I would appreciate it if you answered with the label of your choice.
B
(B: 8.62, A: 7.41)

I. O=C1NC[C@@H](C(=O)NC(c2ccc(F)c(Cl)c2F)[C@@H]2C[C@@H]3[C@H](C2)C3(F)F)O1 (single isomer, unassigned) [Example 74A]
II. O=C1NC[C@@H](C(=O)NC(c2ccc(Cl)cc2)c2n[nH]c3ccccc23)O1 (single isomer, unassigned) [Example 15B]
III. CC1(C(=O)NC(c2ccc(Cl)cc2)c2ccc(Cl)cc2)CNC(=O)O1 (single isomer, unassigned) [Example 7A]
Ascending by pIC50, please: list the compounds accordingly. The reply should contain the labels ordered as requested.
III, II, I

---

Molecular target: human Nav1.8 (Homo sapiens (Human), UniProt Q9Y5Y9)
Assay: Nav1.8 Qube® Assay (automated 384-well patch-clamp)
Details: human Nav1.8 channels stably expressed in HEK 293 cells
From the text: Qube® Assay Experimental Procedure
quantity kind: IC50 (nM)

A. O=C1NC[C@@H](C(=O)NC(c2ccc(F)c(Cl)c2)c2cc(C(F)(F)F)[nH]n2)O1 (single isomer, unassigned) [Example 5A]
B. O=C1NC[C@@H](C(=O)NC(c2ccc(OC(F)(F)F)c(Cl)c2)c2cnn(C(F)(F)F)c2)O1 (single isomer, unassigned) [Example 53B]
C. O=C1NC[C@@H](C(=O)NC(c2ccc(Cl)cc2)C2CCC(F)(F)C2)O1 (single isomer, unassigned) [Example 57B]
List the compounds shown above again, sorted by falling IC50 values. The reply should contain the labels ordered as requested.
C, A, B
(C: 5720 nM, A: 4.8 nM, B: 1.2 nM)

---

target: human Nav1.8 (Homo sapiens (Human), UniProt Q9Y5Y9); assay: Nav1.8 Qube® Assay (automated 384-well patch-clamp); type: cell-based; conditions: human Nav1.8 channels stably expressed in HEK 293 cells
pIC50: −log10 of the molar value.
quantity kind: pIC50

Some solved entries appear below for comparison.
compound	pIC50
O=C1NC[C@@H](C(=O)NC(c2ccc(Cl)cc2)c2cccc(C3CC3)c2)O1 (single isomer, unassigned) [Example 33A]	8.32
O=C1NC[C@@H](C(=O)NC(c2ccc(Cl)cc2)C2CCN(CC(F)(F)F)CC2)O1 (single isomer, unassigned) [Example 42B]	6.57
O=C1NC[C@@H](C(=O)NC(c2ccc(F)c(Cl)c2F)[C@H]2C[C@H](C(F)(F)F)C2)O1 (single isomer, unassigned) [Example 70]	8.27
O=C1NC[C@@H](C(=O)NC(c2ccc(Cl)cc2)c2coc(C(F)(F)F)n2)O1 (single isomer, unassigned) [Example 18A]	7.51
O=C1NC[C@@H](C(=O)NC(c2ccc(F)c(Cl)c2)c2cccc(C(F)(F)F)n2)O1 (single isomer, unassigned) [Example 49A]	8.06

I. O=C1NC[C@@H](C(=O)NC(c2ccc(Cl)cc2)c2nc(C(F)(F)F)cs2)O1 (single isomer, unassigned) [Example 12B]
II. O=C1NC[C@@H](C(=O)NC(c2cncc(Cl)c2)c2ccc(F)c(Cl)c2)O1 (single isomer, unassigned) [Example 13B]
Could you please tell me which of these two has the higher pIC50: I or II ? I would appreciate it if you answered with the label of your choice.
II

---

target: UniProt Q9Y5Y9; test: Nav1.8 Qube® Assay (automated 384-well patch-clamp); details: human Nav1.8 channels stably expressed in HEK 293 cells
quantity kind: IC50 (nM)

molecule	unit annotation	IC50
Cn1nc(C(NC(=O)[C@@H]2CNC(=O)O2)c2ccc(F)c(Cl)c2)cc1C(F)(F)F (single isomer, unassigned) [Example 62B]	nM	11

a. O=C1NC[C@@H](C(=O)NC(c2ccc(OCC(F)(F)F)nc2)c2ccc(F)c(Cl)c2F)O1 (single isomer, unassigned) [Example 50B]
b. CC(NC(=O)[C@@H]1CNC(=O)O1)(c1ccc(Cl)cc1)c1ccc(Cl)cc1 [Example 41]
Just tell me: smaller IC50 value, a or b ? I would appreciate it if you answered with the label of your choice.
a
(a: 48 nM, b: 378 nM)

P. O=C1NC[C@@H](C(=O)NC(c2ccc(Cl)cc2)C2CCCCCC2)O1 (stereo partly shown) [Example 45]
Q. COc1ccc(C(NC(=O)[C@@H]2CNC(=O)O2)c2ccc(Cl)cc2)cn1 (single isomer, unassigned) [Example 22B]
R. Cc1cc(C(NC(=O)[C@@H]2CNC(=O)O2)c2ccc(Cl)cc2)ccc1Cl (single isomer, unassigned) [Example 46B]
S. O=C1NC[C@@H](C(=O)NC(c2ccc(Cl)cc2)c2ccnc(C(F)(F)F)n2)O1 (single isomer, unassigned) [Example 11A]
Arrange by IC50, high to low. The reply should contain the labels ordered as requested.
Q, P, S, R
